Source: patent US8497270B2

# studySystem: recombinant HIV-1 integrase (Human immunodeficiency virus type 1 group M subtype B (isolate HXB2) (HIV-1))
# protocolNotes: Assay 4: 3dQ assay, inhibition of HIV integrase mediated 3'-processing
# Type: biochemical
# testParameters: 3'-processing; 150 nM integrase, 100 nM LEDGF, 50 nM U5 LTR substrate, 2 h at 37° C.; read-out: IC50
pIC50: −log10 of the molar value.
Classify as follows. Reported pIC50 greater than or equal to 6: Criterion met. Reported pIC50 below: Criterion not met.

Prompt: pIC50 >= 6 for O=C1NCCCN2CCN(CC2)c2nc(c(O)c3ncccc23)C(=O)NCc2ccc(F)cc21 [Compound 9] ?
Response: Criterion not met

Prompt: pIC50 >= 6 for CN1c2nc(c(O)c3ncccc23)C(=O)NCc2ccc(F)cc2OCCCCCS1(=O)=O [Compound 12] ?
Response: Criterion met

Prompt: pIC50 >= 6 for CN1c2nc(c(O)c3ncccc23)C(=O)NCc2ccc(F)cc2C(=O)NCCCCS1(=O)=O [Compound 7] ?
Response: Criterion met

Prompt: pIC50 >= 6 for CN1c2nc(c(O)c3ncccc23)C(=O)NCc2ccc(F)cc2C(=O)NCCCCCS1(=O)=O [Compound 6] ?
Response: Criterion met

----------
# protocolNotes: Assay 2: cellular cytotoxic activity
# Type: cell-based
# testParameters: human, mock-infected MT4-CMV-EGFP cells, EGFP fluorescence
observedProperty: CC50 at 3 days

Prompt: Returns the measured CC50 at 3 days for the input compound. Input: `O=C1NCCCCCNc2nc(c(O)c3ncccc23)C(=O)NCc2ccc(F)cc21`
Response: > 31 µM

Prompt: Returns the measured CC50 at 3 days for the input compound. Input: `O=C1NCCCCCCCNc2nc(c(O)c3ncccc23)C(=O)NCc2ccc(F)cc21`
Response: 7.7 µM

Prompt: Returns the measured CC50 at 3 days for the input compound. Input: `O=C1NCCCCCCNc2nc(c(O)c3ncccc23)C(=O)NCc2ccc(F)cc21`
Response: 20.7 µM

Prompt: Returns the measured CC50 at 3 days for the input compound. Input: `O=C1NCCCCNc2nc(c(O)c3ncccc23)C(=O)NCc2ccc(F)cc21`
Response: > 98 µM

Prompt: Returns the measured CC50 at 3 days for the input compound. Input: `O=C1NCCCN2CCN(CC2)c2nc(c(O)c3ncccc23)C(=O)NCc2ccc(F)cc21`
Response: 43 µM

Prompt: Returns the measured CC50 at 3 days for the input compound. Input: `CN1c2nc(c(O)c3ncccc23)C(=O)NCc2ccc(F)cc2C(=O)NCCCCS1(=O)=O`
Response: 13.3 µM

Prompt: Returns the measured CC50 at 3 days for the input compound. Input: `CN1c2nc(c(O)c3ncccc23)C(=O)NCc2ccc(F)cc2OCCCCS1(=O)=O`
Response: > 24 µM

Prompt: Returns the measured CC50 at 3 days for the input compound. Input: `O=C1NCCCCN2CCN(CC2)c2nc(c(O)c3ncccc23)C(=O)NCc2ccc(F)cc21`
Response: 3.1 µM

----------
# studySystem: recombinant HIV-1 integrase (Human immunodeficiency virus type 1 group M subtype B (isolate HXB2) (HIV-1), UniProt P04585)
# protocolNotes: Assay 4: 3dQ assay, inhibition of HIV integrase mediated 3'-processing
# Format: biochemical
# Protocol: The inhibition of HIV integrase mediated 3′-processing was determined in a biochemical assay. […] Integrase inhibition was determined by incubation of 150 nM recombinant HIV-1 integrase, 100 nM recombinant LEDGF and 50 nM U5 LTR substrate in reaction buffer (25 mM MOPS pH7.2, 10 mM DTT, 10 mM MgCl2, 15 mM potassium glutamate and 2.5% DMSO) in the presence or absence of different concentrations test compounds. […]
observedProperty: pIC50
Just so you know, pIC50 here is -log10 of the concentration in molar units; reply with that number alone.

Prompt: Returns the measured pIC50 for the input compound. Input: `O=C1NCCCNc2nc(c(O)c3ncccc23)C(=O)NCc2ccc(F)cc21`
Response: 4.17
